# system-tested: his-labeled human IL-13 (immunogen A) (human) (UniProt P35225)
# protocol-notes: FACS blocking, biotin-IL-13 on IL-13Ra1/IL-4Ra HEK293 cells; antibody at 166.67 nM
Friendly reminder: mean fluorescence intensity below 20 is T, at or above is F.

binder	category-label
28A2E11 (lead antibody, mouse hybridoma) (antibody, V domains shown, Mouse monoclonal antibody purified from hybridoma supernatant on Protein G) VH: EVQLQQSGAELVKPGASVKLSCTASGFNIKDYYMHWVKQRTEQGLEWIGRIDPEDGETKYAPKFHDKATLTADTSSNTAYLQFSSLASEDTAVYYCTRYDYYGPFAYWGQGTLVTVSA VL: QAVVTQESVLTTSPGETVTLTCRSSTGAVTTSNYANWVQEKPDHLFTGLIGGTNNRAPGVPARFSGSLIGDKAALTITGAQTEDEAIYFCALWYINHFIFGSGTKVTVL	F
29D9H8 (lead antibody, mouse hybridoma) (antibody, V domains shown, Mouse monoclonal antibody purified from hybridoma supernatant on Protein G) VH: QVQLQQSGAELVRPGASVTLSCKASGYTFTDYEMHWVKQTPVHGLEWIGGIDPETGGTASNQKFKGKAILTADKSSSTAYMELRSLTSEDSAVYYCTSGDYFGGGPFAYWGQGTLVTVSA VL: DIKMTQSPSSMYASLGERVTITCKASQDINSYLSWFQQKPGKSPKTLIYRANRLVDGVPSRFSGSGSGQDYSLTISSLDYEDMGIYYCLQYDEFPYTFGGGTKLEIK	T
c70F10A10 (mouse-human chimeric IL-13 antibody) (antibody, V domains shown) VH: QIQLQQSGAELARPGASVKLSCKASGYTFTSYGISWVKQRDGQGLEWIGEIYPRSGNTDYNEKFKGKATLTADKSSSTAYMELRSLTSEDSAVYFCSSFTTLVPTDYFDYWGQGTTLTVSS VL: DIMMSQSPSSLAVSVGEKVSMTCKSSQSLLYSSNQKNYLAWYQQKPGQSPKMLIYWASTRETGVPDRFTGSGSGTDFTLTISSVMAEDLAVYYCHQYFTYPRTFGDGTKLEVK	F
70F10A10 (lead antibody, mouse hybridoma) (antibody, V domains shown) VH: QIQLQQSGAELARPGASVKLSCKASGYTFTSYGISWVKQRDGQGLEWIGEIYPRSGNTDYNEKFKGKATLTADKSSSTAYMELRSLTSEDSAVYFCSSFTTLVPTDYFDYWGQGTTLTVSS VL: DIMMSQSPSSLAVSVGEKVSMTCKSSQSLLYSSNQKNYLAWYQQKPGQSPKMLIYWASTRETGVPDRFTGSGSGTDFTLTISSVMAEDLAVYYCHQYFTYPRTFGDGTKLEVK	T
c35E2C3 (mouse-human chimeric IL-13 antibody) (antibody, V domains shown) VH: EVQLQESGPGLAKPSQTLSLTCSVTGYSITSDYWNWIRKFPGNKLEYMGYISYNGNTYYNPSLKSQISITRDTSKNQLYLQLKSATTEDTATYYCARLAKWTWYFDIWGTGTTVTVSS VL: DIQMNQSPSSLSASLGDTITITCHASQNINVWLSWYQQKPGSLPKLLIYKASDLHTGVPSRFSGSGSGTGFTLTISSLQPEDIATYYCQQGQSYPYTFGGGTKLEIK	T
c28A2E11 (mouse-human chimeric IL-13 antibody) (antibody, V domains shown) VH: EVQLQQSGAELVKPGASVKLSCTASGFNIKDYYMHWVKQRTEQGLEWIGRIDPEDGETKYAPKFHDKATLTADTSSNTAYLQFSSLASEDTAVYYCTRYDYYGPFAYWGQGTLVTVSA VL: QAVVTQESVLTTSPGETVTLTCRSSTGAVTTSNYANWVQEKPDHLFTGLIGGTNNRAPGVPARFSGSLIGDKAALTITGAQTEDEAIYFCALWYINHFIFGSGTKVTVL	F
